test.protocol: Selectivity index, ratio of CC50 for human HepG2 cells to IC50 for chloroquine-resistant Plasmodium falciparum W2 infected in human erythrocytes
Type: toxicity, cell-based
condition.label: read-out: Ratio CC50/IC50
attribute.measured: selectivity ratio

smiles: O=C1C=C(NCCn2cc(C3(O)CCCCC3)nn2)C(=O)c2ccccc21
attribute.measured: selectivity ratio
endpoint.result: 163
//
smiles: Cc1ccc(-c2cn(CCNC3=CC(=O)c4ccccc4C3=O)nn2)cc1
attribute.measured: selectivity ratio
endpoint.result: 6.88
//
smiles: O=C1C=C(NCCn2cc(-c3ccccc3)nn2)C(=O)c2ccccc21
attribute.measured: selectivity ratio
endpoint.result: 343
//
smiles: CC(C)(O)c1cn(CCNC2=CC(=O)c3ccccc3C2=O)nn1
attribute.measured: selectivity ratio
endpoint.result: 35.3
//
smiles: COc1ccc(-c2cn(CCNC3=CC(=O)c4ccccc4C3=O)nn2)cc1
attribute.measured: selectivity ratio
endpoint.result: 68.8

====

test.protocol: Octanol-water partition coefficient, logP of the compound
Format: physicochemical
Note to self: values exactly at 3 are 1 (yes). So logP at or above 3 is 1 (yes), below is 0 (no).

smiles: CC(C)(O)c1cn(CCNC2=CC(=O)c3ccccc3C2=O)nn1
class: 0 (no)

smiles: O=C1C=C(NCCn2cc(-c3ccccc3)nn2)C(=O)c2ccccc21
class: 0 (no)

smiles: Cc1ccc(-c2cn(CCNC3=CC(=O)c4ccccc4C3=O)nn2)cc1
class: 1 (yes)

smiles: COc1ccc(-c2cn(CCNC3=CC(=O)c4ccccc4C3=O)nn2)cc1
class: 0 (no)

smiles: O=C1C=C(NCCn2cc(C3(O)CCCCC3)nn2)C(=O)c2ccccc21
class: 0 (no)

====

Reported hemolysis at 1 h, up to 1000 µM is given for each of the following compounds.
test.protocol: Hemolytic activity in human red blood cells type A assessed as hemoglobin release at 500 to 1000 uM incubated for 60 mins by spectrophotometry
Format: toxicity, cell-based, Erythrocyte
condition.label: dose 500-1000 µM, read-out: Activity
attribute.measured: hemolysis at 1 h, up to 1000 µM

smiles: CC(C)(O)c1cn(CCNC2=CC(=O)c3ccccc3C2=O)nn1
endpoint.result: > 40%
//
smiles: O=C1C=C(NCCn2cc(C3(O)CCCCC3)nn2)C(=O)c2ccccc21
endpoint.result: > 40%
//
smiles: Cc1ccc(-c2cn(CCNC3=CC(=O)c4ccccc4C3=O)nn2)cc1
endpoint.result: > 40%
//
smiles: COc1ccc(-c2cn(CCNC3=CC(=O)c4ccccc4C3=O)nn2)cc1
endpoint.result: > 40%
//
smiles: O=C1C=C(NCCn2cc(-c3ccccc3)nn2)C(=O)c2ccccc21
endpoint.result: > 40%

====

test.protocol: Cytotoxicity against African green monkey Vero cells incubated for 24 hrs by MTT assay
Format: toxicity, cell-based
condition.label: chlorocebus sabaeus

compound: Cc1ccc(-c2cn(CCNC3=CC(=O)c4ccccc4C3=O)nn2)cc1
unit.name: µM
CC50 at 24 h: 207

compound: COc1ccc(-c2cn(CCNC3=CC(=O)c4ccccc4C3=O)nn2)cc1
unit.name: µM
CC50 at 24 h: 401

compound: O=C1C=C(NCCn2cc(C3(O)CCCCC3)nn2)C(=O)c2ccccc21
unit.name: µM
CC50 at 24 h: 1340

compound: CC(C)(O)c1cn(CCNC2=CC(=O)c3ccccc3C2=O)nn1
unit.name: µM
CC50 at 24 h: 188

compound: O=C1C=C(NCCn2cc(-c3ccccc3)nn2)C(=O)c2ccccc21
unit.name: µM
CC50 at 24 h: 116

compound: CCN(CC)CCCC(C)Nc1ccnc2cc(Cl)ccc12 (stereo unspecified) [CHLOROQUINE]
unit.name: µM
CC50 at 24 h: 35.8
